Reported IC50 values for the following compounds.
target: SOS1/KRAS WT (Homo sapiens (Human)); assay: SOS1/KRAS WT HTRF binding assay (FRET-based protein-protein interaction); conditions: inhibition of His6-SOS1 (aa564-1049, 40 nM) binding to GST-KRAS-WT (aa1-188, 40 nM); at least two independent replicates; read-out: SOS1/KRAS WT HTRF Binding assay pIC50 (converted)
Sequence (Q07889 564-1049): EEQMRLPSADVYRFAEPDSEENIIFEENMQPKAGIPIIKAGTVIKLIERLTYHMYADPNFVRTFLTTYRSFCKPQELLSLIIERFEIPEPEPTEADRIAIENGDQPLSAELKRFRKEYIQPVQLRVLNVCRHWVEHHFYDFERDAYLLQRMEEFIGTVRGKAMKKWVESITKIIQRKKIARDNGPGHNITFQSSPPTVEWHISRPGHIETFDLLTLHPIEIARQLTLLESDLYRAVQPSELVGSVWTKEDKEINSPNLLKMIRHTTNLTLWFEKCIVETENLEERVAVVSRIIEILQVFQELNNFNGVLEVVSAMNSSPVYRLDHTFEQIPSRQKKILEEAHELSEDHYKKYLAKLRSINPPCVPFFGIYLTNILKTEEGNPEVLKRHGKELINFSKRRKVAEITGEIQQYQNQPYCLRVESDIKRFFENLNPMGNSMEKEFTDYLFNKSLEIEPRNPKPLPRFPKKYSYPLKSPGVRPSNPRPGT
measured-metric: IC50 (nM)

[
  {
    "compound": "Cc1nnc(N[C@H](C)c2cccc(C(F)(F)F)c2)c2cc3c(cc12)n(C)c(=O)n3C1CCOC1 (some centres unmarked)",
    "assayed-target": "SOS1/KRAS WT (Homo sapiens (Human))",
    "units-label": "nM",
    "quantitative-result": 11.7
  },
  {
    "compound": "Cc1c([C@@H](C)Nc2nnc(C)c3cc4c(cc23)n(C2CC2)c(=O)n4C)cccc1C(F)(F)C(C)(C)O",
    "assayed-target": "SOS1/KRAS WT (Homo sapiens (Human))",
    "units-label": "nM",
    "quantitative-result": 13.2
  },
  {
    "compound": "CCN1C(=O)C(C)(OC)c2cc3c(C)nnc(N[C@H](C)c4cccc(C(F)(F)C(C)(C)O)c4)c3cc21 (some centres unmarked)",
    "assayed-target": "SOS1/KRAS WT (Homo sapiens (Human))",
    "units-label": "nM",
    "quantitative-result": 11.7
  },
  {
    "compound": "Cc1nnc(N[C@H](C)c2cccc(C(F)(F)C(C)(C)O)c2F)c2cc3c(cc12)N(C)C(=O)C31CCOCC1",
    "assayed-target": "SOS1/KRAS WT (Homo sapiens (Human))",
    "units-label": "nM",
    "quantitative-result": 6.61
  },
  {
    "compound": "COC1(C)C(=O)N(C2CC2)c2cc3c(N[C@H](C)c4cccc(C(F)(F)C(C)(C)O)c4)nnc(C)c3cc21 (some centres unmarked)",
    "assayed-target": "SOS1/KRAS WT (Homo sapiens (Human))",
    "units-label": "nM",
    "quantitative-result": 9.55
  },
  {
    "compound": "Cc1c([C@@H](C)Nc2nnc(C)c3cc4c(cc23)C2(CCOCC2)C(=O)N4C)cccc1C(F)(F)CO",
    "assayed-target": "SOS1/KRAS WT (Homo sapiens (Human))",
    "units-label": "nM",
    "quantitative-result": 6.61
  },
  {
    "compound": "Cc1nnc(N[C@H](C)c2cc(F)cc(C(F)(F)CO)c2)c2cc3c(cc12)C(C)(C)C(=O)N3C",
    "assayed-target": "SOS1/KRAS WT (Homo sapiens (Human))",
    "units-label": "nM",
    "quantitative-result": 18.6
  },
  {
    "compound": "Cc1nnc(N[C@H](C)c2cccc(C(F)(F)CO)c2F)c2cc3c(cc12)N(C)C(=O)C31CCOCC1",
    "assayed-target": "SOS1/KRAS WT (Homo sapiens (Human))",
    "units-label": "nM",
    "quantitative-result": 6.61
  },
  {
    "compound": "Cc1nnc(N[C@H](C)c2cccc(C(F)(F)CO)c2F)c2cc3c(cc12)C1(CCCC1)C(=O)N3C",
    "assayed-target": "SOS1/KRAS WT (Homo sapiens (Human))",
    "units-label": "nM",
    "quantitative-result": 6.76
  },
  {
    "compound": "Cc1c([C@@H](C)Nc2nnc(C)c3cc4c(cc23)N(C)C(=O)C42CCCC2)cccc1C(F)(F)C(C)(C)O",
    "assayed-target": "SOS1/KRAS WT (Homo sapiens (Human))",
    "units-label": "nM",
    "quantitative-result": 8.32
  },
  {
    "compound": "Cc1c(-c2ccn(C)n2)cccc1[C@@H](C)Nc1nnc(C)c2cc3c(cc12)n(C)c(=O)n3C",
    "assayed-target": "SOS1/KRAS WT (Homo sapiens (Human))",
    "units-label": "nM",
    "quantitative-result": 11
  },
  {
    "compound": "CNCC(F)(F)c1cccc([C@@H](C)Nc2nnc(C)c3cc4c(cc23)n(C)c(=O)n4C)c1F",
    "assayed-target": "SOS1/KRAS WT (Homo sapiens (Human))",
    "units-label": "nM",
    "quantitative-result": 15.8
  },
  {
    "compound": "CCc1nnc(N[C@H](C)c2cccc(C(F)(F)C(C)(C)O)c2F)c2cc3c(cc12)C(C)(OC)C(=O)N3C (some centres unmarked)",
    "assayed-target": "SOS1/KRAS WT (Homo sapiens (Human))",
    "units-label": "nM",
    "quantitative-result": 13.2
  },
  {
    "compound": "Cc1nnc(N[C@H](C)c2cccc(C(F)(F)F)c2)c2cc3c(cc12)n(C)c(=O)n3C(C)C",
    "assayed-target": "SOS1/KRAS WT (Homo sapiens (Human))",
    "units-label": "nM",
    "quantitative-result": 8.13
  }
]

Origin of values: patent US20250197407A1
